# maps each entry to its IC50
Target: HLA-B1501 (Homo sapiens, UniProt P01889, A329T/A93T/A95T/C349S/D201E/D98Y/E187L/E204Q/E69M/E70A/K202T/N87E/Q94N/R155S/R180W/S121R/S35A/S48A/V306I/V36M/Y140S/Y91S)
Test: Competitive peptide binding assay, CIR-B1501
Details: HMy2.CIR-B1501 cells, reference Cy5-[…], class from inhibition at 5 and 15 μM, flow cytometry MFI; read-out: Binding affinity with HLA-B1501
Peptide text beside a SMILES is read from it.

{"COMPOUND": "CSCC[C@H](NC(=O)[C@H](C)NC(=O)[C@H](CCC(=O)O)NC(=O)[C@H](Cc1ccc(O)cc1)NC(=O)[C@H](Cc1ccccc1)NC(=O)[C@H](CCC(=O)O)NC(=O)[C@@H]1CCCN1C(=O)[C@H](CCC(=O)O)NC(=O)[C@@H](N)Cc1c[nH]c2ccccc12)C(=O)O [Epitope Y200] (H-WEPEFYEAM-OH; N-terminus and C-terminus assumed)", "IC50": "> 15 µM"}
{"COMPOUND": "CC[C@H](C)[C@H](NC(=O)[C@H](Cc1ccc(O)cc1)NC(=O)[C@H](CCC(N)=O)NC(=O)[C@H](CCC(=O)O)NC(=O)[C@@H](N)Cc1ccc(O)cc1)C(=O)N[C@@H](CCCCN)C(=O)N[C@@H](Cc1c[nH]c2ccccc12)C(=O)N1CCC[C@H]1C(=O)N[C@@H](Cc1c[nH]c2ccccc12)C(=O)O [Epitope Y230] (H-YEQYIKWPW-OH; N-terminus and C-terminus assumed)", "IC50": "> 15 µM"}
{"COMPOUND": "CSCC[C@H](NC(=O)[C@H](CCSC)NC(=O)[C@H](CO)NC(=O)[C@H](Cc1ccccc1)NC(=O)[C@H](Cc1c[nH]cn1)NC(=O)[C@H](CCCCN)NC(=O)[C@H](CCCNC(=N)N)NC(=O)[C@H](CC(C)C)NC(=O)[C@@H](N)Cc1ccc(O)cc1)C(=O)O [Epitope Y28] (H-YLRKHFSMM-OH; N-terminus and C-terminus assumed)", "IC50": "< 5 µM"}
{"COMPOUND": "CC[C@H](C)[C@H](N)C(=O)N[C@@H](C)C(=O)N[C@@H](CC(N)=O)C(=O)N[C@@H](CCC(N)=O)C(=O)N[C@@H](Cc1ccccc1)C(=O)N[C@@H](CC(N)=O)C(=O)N[C@@H](CO)C(=O)N[C@@H](C)C(=O)N[C@H](C(=O)O)[C@@H](C)CC [Epitope Y283] (H-IANQFNSAI-OH; N-terminus and C-terminus assumed)", "IC50": "5 to 15 µM"}

###

Target: HLA-C0304 (Homo sapiens, UniProt P10321, A176E/A330V/A97T/C25G/C350S/D114A/D33Y/E197K/L119I/L127V/L171W/L218V/M285V/M309V/M331V/P208H/Q277E/Q291P/R243W/R45H/S123Y/S140Y/S297R/S48A/T118I/T187L/T329A/T363A/V319A)
Assay: Competitive peptide binding assay, CIR-C0304
Settings: HMy2.CIR-C0304 cells, reference Cy5-[…], class from inhibition at 5 and 15 μM, flow cytometry MFI; read-out: Binding affinity with HLA-C0304
Peptide text beside a SMILES is read from it.
# maps each entry to its IC50
QUANTITY: IC50

{"COMPOUND": "CC(C)C[C@H](NC(=O)[C@H](CC(C)C)NC(=O)[C@H](Cc1ccccc1)NC(=O)[C@@H](NC(=O)[C@@H](NC(=O)[C@H](Cc1ccccc1)NC(=O)[C@H](C)NC(=O)[C@H](CC(C)C)NC(=O)[C@@H](N)Cc1ccccc1)C(C)C)C(C)C)C(=O)O [Epitope M76] (H-FLAFVVFLL-OH; N-terminus and C-terminus assumed)", "RESULT": "< 5 µM"}
{"COMPOUND": "CC(C)C[C@H](NC(=O)[C@@H](NC(=O)[C@H](CCCNC(=N)N)NC(=O)[C@H](CO)NC(=O)[C@@H](NC(=O)[C@H](C)NC(=O)[C@@H](N)C(C)C)[C@@H](C)O)[C@@H](C)O)C(=O)N[C@@H](CO)C(=O)N[C@@H](Cc1ccc(O)cc1)C(=O)O [Epitope M72] (H-VATSRTLSY-OH; N-terminus and C-terminus assumed)", "RESULT": "> 15 µM"}
{"COMPOUND": "CC[C@H](C)[C@H](NC(=O)[C@@H]1CCCN1C(=O)[C@@H](NC(=O)[C@H](Cc1c[nH]cn1)NC(=O)[C@H](CCCCN)NC(=O)[C@H](CO)NC(=O)[C@H](Cc1ccc(O)cc1)NC(=O)[C@@H](NC(=O)[C@@H](N)CCCCN)[C@@H](C)CC)[C@@H](C)O)C(=O)O [Epitope M34] (H-KIYSKHTPI-OH; N-terminus and C-terminus assumed)", "RESULT": "> 15 µM"}
{"COMPOUND": "CC[C@H](C)[C@H](N)C(=O)N[C@@H](C)C(=O)N[C@@H](CCSC)C(=O)N[C@@H](C)C(=O)N[C@@H](CS)C(=O)N[C@@H](CC(C)C)C(=O)N[C@H](C(=O)NCC(=O)N[C@@H](CC(C)C)C(=O)O)C(C)C [Epitope M44] (H-IAMACLVGL-OH; N-terminus and C-terminus assumed)", "RESULT": "> 15 µM"}
{"COMPOUND": "CC(C)C[C@H](NC(=O)[C@@H](NC(=O)[C@@H](NC(=O)CNC(=O)[C@H](CCC(N)=O)NC(=O)[C@@H]1CCCN1C(=O)[C@H](CC(C)C)NC(=O)[C@H](CCC(N)=O)NC(=O)[C@@H](N)CC(C)C)[C@@H](C)O)[C@@H](C)O)C(=O)O [Epitope M13] (H-LQLPQGTTL-OH; N-terminus and C-terminus assumed)", "RESULT": "< 5 µM"}
{"COMPOUND": "C[C@@H](O)[C@H](NC(=O)[C@H](CCC(N)=O)NC(=O)[C@H](CC(=O)O)NC(=O)[C@H](Cc1c[nH]c2ccccc12)NC(=O)[C@H](Cc1ccc(O)cc1)NC(=O)[C@H](CCCCN)NC(=O)[C@H](Cc1ccccc1)NC(=O)[C@@H](N)Cc1ccc(O)cc1)C(=O)N[C@@H](Cc1ccc(O)cc1)C(=O)O [Epitope M122] (H-YFKYWDQTY-OH; N-terminus and C-terminus assumed)", "RESULT": "> 15 µM"}
{"COMPOUND": "CC[C@H](C)[C@H](N)C(=O)N[C@H](C(=O)N[C@@H](CC(N)=O)C(=O)N[C@@H](CO)C(=O)N[C@H](C(=O)N[C@@H](CC(C)C)C(=O)N[C@@H](CC(C)C)C(=O)N[C@@H](Cc1ccccc1)C(=O)N[C@@H](CC(C)C)C(=O)O)C(C)C)C(C)C [Epitope M7] (H-IVNSVLLFL-OH; N-terminus and C-terminus assumed)", "RESULT": "> 15 µM"}
{"COMPOUND": "CSCC[C@H](NC(=O)[C@H](CO)NC(=O)[C@H](CCC(N)=O)NC(=O)[C@H](CCC(N)=O)NC(=O)[C@H](CC(C)C)NC(=O)[C@H](CCC(N)=O)NC(=O)[C@H](CCCCN)NC(=O)[C@H](CO)NC(=O)[C@@H](N)Cc1ccccc1)C(=O)O [Epitope M14] (H-FSKQLQQSM-OH; N-terminus and C-terminus assumed)", "RESULT": "5 to 15 µM"}
{"COMPOUND": "CC[C@H](C)[C@H](NC(=O)[C@@H](NC(=O)CNC(=O)[C@H](CC(N)=O)NC(=O)[C@H](CO)NC(=O)[C@H](CC(=O)O)NC(=O)[C@H](C)NC(=O)[C@@H](N)CCSC)[C@@H](C)O)C(=O)N[C@H](C(=O)N[C@H](C(=O)O)C(C)C)[C@@H](C)O [Epitope M48] (H-MADSNGTITV-OH; N-terminus and C-terminus assumed)", "RESULT": "5 to 15 µM"}

###

# maps each entry to its pIC50
Target: HLA-B5801 (Homo sapiens, UniProt P01889, A329T/C349S/D201E/D98Y/E176V/E187L/E204Q/E69T/G107R/I218V/I90N/K202T/L105A/L119I/N104I/N87E/Q89R/Q94S/R106L/R155S/R180L/R86G/S101N/S121R/S35A/S48A/T118I/V127L/V306I/V36M/Y140S/Y91M)
Assay: Competitive peptide binding assay, CIR-B5801
Conditions: HMy2.CIR-B5801 cells, reference Cy5-[…], class from inhibition at 5 and 15 μM, flow cytometry MFI; read-out: Binding affinity with HLA-B5801
pIC50: −log10 of the molar value. Peptide text beside a SMILES is read from it.
QUANTITY: pIC50

{"COMPOUND": "CC[C@H](C)[C@H](NC(=O)[C@@H](NC(=O)[C@H](CC(C)C)NC(=O)[C@H](CCC(=O)O)NC(=O)[C@H](CO)NC(=O)[C@H](CCC(=O)O)NC(=O)[C@@H](N)CC(C)C)C(C)C)C(=O)NCC(=O)N[C@@H](C)C(=O)N[C@H](C(=O)O)C(C)C [Epitope Y211] (H-LESELVIGAV-OH; N-terminus and C-terminus assumed)", "QUANTITY": "pIC50", "RESULT": "< 4.82"}
{"COMPOUND": "CSCC[C@H](NC(=O)[C@H](CO)NC(=O)[C@H](CCCNC(=N)N)NC(=O)[C@@H](NC(=O)[C@H](CCCNC(=N)N)NC(=O)[C@H](C)NC(=O)[C@@H](N)Cc1ccccc1)[C@@H](C)O)C(=O)N[C@@H](Cc1c[nH]c2ccccc12)C(=O)N[C@@H](CO)C(=O)N[C@@H](Cc1ccccc1)C(=O)O [Epitope Y47] (H-FARTRSMWSF-OH; N-terminus and C-terminus assumed)", "QUANTITY": "pIC50", "RESULT": "< 4.82"}
{"COMPOUND": "CC[C@H](C)[C@H](NC(=O)[C@@H](NC(=O)[C@H](CC(C)C)NC(=O)[C@H](CC(N)=O)NC(=O)[C@H](Cc1c[nH]c2ccccc12)NC(=O)[C@H](CCC(N)=O)NC(=O)[C@H](CCC(=O)O)NC(=O)[C@@H](N)CC(C)C)C(C)C)C(=O)NCC(=O)O [Epitope Y215] (H-LEQWNLVIG-OH; N-terminus and C-terminus assumed)", "QUANTITY": "pIC50", "RESULT": "< 4.82"}
{"COMPOUND": "CC[C@H](C)[C@H](NC(=O)[C@H](CC(C)C)NC(=O)[C@H](CS)NC(=O)CNC(=O)[C@H](C)NC(=O)[C@H](CCCNC(=N)N)NC(=O)[C@@H](NC(=O)[C@H](CCC(N)=O)NC(=O)[C@@H](N)Cc1ccccc1)[C@@H](C)O)C(=O)O [Epitope Y89] (H-FQTRAGCLI-OH; N-terminus and C-terminus assumed)", "QUANTITY": "pIC50", "RESULT": "< 4.82"}
{"COMPOUND": "CC[C@H](C)[C@H](NC(=O)[C@H](CC(C)C)NC(=O)[C@@H](N)CCC(=O)O)C(=O)N[C@@H](CCCNC(=N)N)C(=O)N[C@@H](CCC(N)=O)C(=O)NCC(=O)N[C@H](C(=O)N[C@@H](CC(=O)O)C(=O)N[C@@H](Cc1ccc(O)cc1)C(=O)O)[C@@H](C)O [Epitope Y162] (H-ELIRQGTDY-OH; N-terminus and C-terminus assumed)", "QUANTITY": "pIC50", "RESULT": "4.82 to 5.30"}

All figures here come from paper PMC12133982.
